# System: SK-OV-3 ovarian
# method.description: NCI tumour cell line growth inhibition, 48 h; in the data active = GI50 below about 0.43 µM; inactive = the rest
Possible outcomes: active, inactive

cpd.smiles	assigned.category
O=C(Nc1ccc(CO)cc1)c1coc2ccccc2c1=O	inactive
COc1ccc2c(O)cc3c(c2c1)[C@H](CCl)CN3C(=O)c1cc2cc(NC(=O)CCN3CCOCC3)ccc2[se]1	active
COc1ccc(-c2ccc(/C=N/n3c(C)n[nH]c3=S)o2)c([N+](=O)[O-])c1	inactive
CC(=O)/C=C/c1ccc(C#Cc2ccccc2)s1	inactive
Cc1cc2c(cc1Cl)SC(=Nc1ccc(Cl)cc1)N(S(=O)(=O)c1ccccc1)S2(=O)=O	inactive
CCOC(=O)CNC(=O)c1ccccc1Nc1ccnc(C(F)(F)F)c1	inactive
COc1ccc2ncn(-c3cc(O[C@H](C)c4ccccc4Cl)c(C(N)=O)s3)c2c1	active
COc1cc(C2=C(c3cn(C)c4ccccc34)COC2=O)cc(OC)c1OC	active
Cc1cc[c-]cc1.Fc1c[c-]c(-c2ccccn2)c(F)c1.[Pt+2].c1ccc(P(C[PH+](c2ccccc2)c2ccccc2)c2ccccc2)cc1	inactive
CCC(C)(C)c1ccc(OCCCCCCN2CCNCC2)cc1	inactive
NC(N)=NCCCCCNc1noc(Cc2c[nH]c3cc(Br)ccc23)n1	inactive
CCc1ccccc1NC(=O)c1sc2nc3c(cc2c1N)C(=O)CCC3	inactive
Cn1cc(C2=C(c3cn(CCCCCN)c4ccccc34)C(=O)NC2=O)c2ccccc21	inactive
COc1ccc(Nc2c3ccccc3nc3occ(Cl)c23)cc1	inactive
C=C1C(=O)O[C@H]2[C@H]1CC/C(COC(=O)c1ccc(Cl)nc1)=C\CC[C@@]1(C)O[C@@H]21	inactive
COCCOc1cnc2ccn([C@H](C)c3nnc4c(F)cc(-c5cnn(C)c5)cn34)c(=O)c2c1	inactive

----------
# Tested on: CAKI-1 renal
# method.description: NCI tumour cell line growth inhibition, 48 h
Reported values of TGI for individual entries
readout.type: TGI

compound	measured.result
C1C[OH+]CCNCC[OH+]CC[OH+]CCN1.[Cl-].[Pt+4]	> 100 µM
NC1=NS(=O)(=O)Nc2nc(-c3ccc(Cl)cc3)c(-c3ccc(Cl)cc3)nc21	> 100 µM
Cc1cc(C2CC(O)C(CO)O2)cc2c(=O)[nH]c(N)nc12 (stereo not given)	> 100 µM
O=C(Nc1ccc(Br)cc1)c1ccc(Cl)c(Cl)c1	4.58 µM
CC(C)(C=O)CC(C#N)/C(=N\NC(N)=O)C(=O)Nc1ccccc1C(N)=O (stereo not given)	> 100 µM
COC(=O)C1=CC(=O)OC1(OO)c1ccccc1 (stereo not given)	> 100 µM
Cc1cc(S(=O)(=O)N/N=C(\Sc2cc(Cl)c(C)cc2S(N)(=O)=O)c2ccc(Cl)cc2)c(Cl)cc1Cl	> 100 µM
CCCCCC(=O)NC(=S)Nc1nn[nH]n1	> 100 µM
COC(=O)[C@H](Cc1ccccc1)NC(=O)[C@H](Cc1ccccc1)NC(=O)[C@@H]1CCCN1C(=O)N[C@H]1C2C=CC(C2)C1C(=O)N1CCC[C@H]1C(=O)N[C@@H](C)C(=O)N[C@H](C(=O)OC)C(C)C (stereo not given in full)	> 100 µM
COC(=O)OCC1OC(N2C(=O)NC(=O)C(Br)C2N=[N+]=[N-])CC1OC(=O)OC (stereo not given)	> 100 µM
COc1cc(CNc2ccc(SC)cc2)cc(OC)c1OC	> 97.1 µM
O=C1c2ccccc2C(=O)N1Cc1ccccc1-c1c2nc(c(-c3ccccc3CN3C(=O)c4ccccc4C3=O)c3ccc([nH]3)c(-c3ccccc3CN3C(=O)c4ccccc4C3=O)c3nc(c(-c4ccccc4CN4C(=O)c5ccccc5C4=O)c4ccc1[nH]4)C=C3)C=C2	> 100 µM
N#Cc1c(-c2ccccc2)nc(-c2ccccc2)sc1=S	> 100 µM
O=C1[C@H]2ON(c3ccccc3)C(c3ccc(Cl)cc3)[C@H]2C(=O)N1c1ccc(Cc2ccc(N3C(=O)[C@@H]4ON(c5ccccc5)C(c5ccc(Cl)cc5)[C@@H]4C3=O)cc2)cc1 (stereo not given in full)	> 100 µM
C1CNCCNCCN1	> 100 µM
CCC1(C)N=C(c2cnccn2)NN1c1ccc(Cl)cc1 (stereo not given)	> 100 µM
O=C(Nc1ccc(-c2ccccc2)cc1)C1CCN(S(=O)(=O)c2ccccc2Cl)CC1	> 100 µM
C[C@]12CC[C@@H]3c4ccc(O)cc4CC[C@H]3[C@@H]1CC[C@@H]2NS(=O)(=O)c1cccc(F)c1	13.5 µM
COc1ccc2c(c1)C(C)Cc1c(ncnc1-n1c(C)nc3ccccc31)N2C (stereo not given)	78.8 µM
COc1ccc(OC)c2c(/C=C/c3ccc(N(C)C)cc3)ccnc12	> 10 µM

----------
Reported values of TGI for individual entries
# Tested on: HOP-62 NSCLC
# method.description: NCI tumour cell line growth inhibition, 48 h

molecule	TGI
COc1cc2ncn(-c3cc(OCCc4ccccc4)c(C(N)=O)s3)c2cc1OC	> 25 µM
CC(=O)c1ccc2c3c1[C@@H]1O[C@@H]1c1cccc(c1-3)[C@@H]1O[C@H]21	36.6 µM
CCCCCC(=O)NC(=S)Nc1nn[nH]n1	> 100 µM
O=C1OC2(OC2c2ccccc2)c2ccccc21 (stereo unspecified)	> 100 µM
COc1ccc2[nH]c3c4c(ccc3c2c1)C(=O)C=CC4=O	> 94.4 µM
Cc1cc[c-]cc1.Fc1c[c-]c(-c2ccccn2)c(F)c1.[Pt+2].c1ccc(P(C[PH+](c2ccccc2)c2ccccc2)c2ccccc2)cc1	10.7 µM
Nc1ccc(N=Nc2ccccc2)cc1	> 100 µM
COc1cc2ccc3c4cc(OC)c(OC(C)C)cc4cnc3c2cc1OC	> 100 µM
Cc1cc(I)cc(CN(C)CCCN2CCOCC2)c1O	> 100 µM
O=C1NC(N/N=C/C(O)C(O)C(O)CO)=N/C1=C\c1ccco1 (stereo unspecified)	> 100 µM
NC(CS/C(Cl)=C/Cl)C(=O)O (stereo unspecified)	29.3 µM
CC(=O)N1N=C(c2ccc3ccccc3c2O)CC1C(=O)c1ccco1 (stereo unspecified)	> 100 µM
CNC(=O)Oc1ccc(-c2cn3cc(OC(=O)NC)ccc3n2)cc1	> 100 µM
COc1ccc(Nc2nc(NS(=O)(=O)c3cc(C)c(Cl)cc3S)n[nH]2)cc1	> 100 µM
O=c1nc2c(c(-c3ccccc3Cl)[nH]1)COC/C2=C\c1ccccc1Cl	> 100 µM
O=C(Nc1cc(Cl)ccc1Cl)C(=O)C(c1cnc2ccccc2n1)[N+](=O)[O-] (stereo unspecified)	> 100 µM
N#Cc1nc(-c2cccs2)oc1N	> 100 µM
CN1NC(=Nc2ccccc2)Sc2c1cnn(-c1ccccc1)c2=O	> 100 µM
CC(=O)O[C@H]1CC[C@@]2(C)C(=CC[C@H]3[C@@H]4C[C@H](N5CCCC5)[C@H](OC(C)=O)[C@@]4(C)CC[C@@H]32)C1	> 100 µM
NC(N)=NCCCCCNc1noc(Cc2c[nH]c3cc(Br)ccc23)n1	28.4 µM
O=S1OC2(c3ccccc3-c3ccccc32)c2ccccc21 (stereo unspecified)	> 100 µM

----------
# Tested on: CCRF-CEM leukemia
# method.description: NCI tumour cell line growth inhibition, 48 h; in the data active = GI50 below about 0.43 µM; inactive = the rest
Classes used: 1 (yes) for active, 0 (no) for inactive

molecule	assigned.category
COCCOc1cnc2ccn([C@H](C)c3nnc4c(F)cc(-c5cnn(C)c5)cn34)c(=O)c2c1	0 (no)
CCOC(=O)/C=C(\C(=O)OCC)n1cc(C)c(=O)n(Cc2cnnn2CCCCOC(C)=O)c1=O	0 (no)
CCc1ccccc1NC(=O)c1sc2nc3c(cc2c1N)C(=O)CCC3	1 (yes)
Cc1cc(C2CC(O)C(CO)O2)cc2c(=O)[nH]c(N)nc12 (stereo not given)	0 (no)
COc1cc2c(c(OC)n1)[C@]1(O)[C@H](O)[C@H](CN(C)C)[C@@H](c3ccccc3)[C@]1(c1ccc(C#N)cc1)O2	1 (yes)
O=C(COc1ccc(/C=C2\CSc3ccccc3C2=O)cc1)Nc1nccs1	0 (no)
COc1cccc(/C(COc2ccc3c(c2)oc(=O)c2cc(OC)ccc23)=N/O)c1	0 (no)
COc1ccc2c(c1)C(C)Cc1c(ncnc1-n1c(C)nc3ccccc31)N2C (stereo not given)	0 (no)
O=C(Nc1ccc(-n2cc(-c3ccncc3)c(-c3ccc(Cl)c(O)c3)n2)cc1)Nc1ccc(Cl)c(C(F)(F)F)c1	0 (no)
COc1ccc(-c2ccc(/C=N/n3c(C)n[nH]c3=S)o2)c([N+](=O)[O-])c1	0 (no)

----------
# System: HT29 colon
# method.description: NCI tumour cell line growth inhibition, 48 h

molecule	TGI
CC(=O)c1ccc2c3c1[C@@H]1O[C@@H]1c1cccc(c1-3)[C@@H]1O[C@H]21	> 27.9 µM
Cc1ccc(/C(O)=C/C(=O)C(=O)/C=C(\O)c2ccc(C)cc2C)c(C)c1	> 20.8 µM
N#CC(=NCCO)C1=C(O)c2ccccc2C1=O	> 100 µM
O=c1c2c([N+](=O)[O-])cccc2nc2[nH]c3ccccc3n12	> 75 µM
COc1ccc(-c2oc3cc(O)c(OC)c(O)c3c(=O)c2OC)cc1O	> 100 µM
CC(C)(C=O)CC(C#N)/C(=N\NC(N)=O)C(=O)Nc1ccccc1C(N)=O (centres undefined)	> 100 µM
Oc1cc(C2OCCCO2)cc(O)c1O	> 100 µM
COC(=O)[C@H](Cc1ccccc1)NC(=O)[C@H](Cc1ccccc1)NC(=O)[C@@H]1CCCN1C(=O)N[C@H]1C2C=CC(C2)C1C(=O)N1CCC[C@H]1C(=O)N[C@@H](C)C(=O)N[C@H](C(=O)OC)C(C)C (some centres undefined)	> 100 µM
[Au+].[Au+].[Au+].[c-]1nccn1Cc1ccccc1.[c-]1nccn1Cc1ccccc1.[c-]1nccn1Cc1ccccc1	> 77.4 µM
